assayed_target: HLA-B*15:01
test_details: IEDB peptide-MHC binding, purified MHC/competitive/fluorescence; filed as Kd, often an IC50 or EC50 that approximates it; bounds were set here for any values at or beyond the usual limits of such assays
condition_label: source organism: Escherichia coli

>  <sequence_code>
EQRLIDICV

>  <assayed_target>
HLA-B*15:01

>  <Kd>
863 nM

$$$$

----------
assayed_target: HLA-B*08:01
test_details: IEDB peptide-MHC binding, purified MHC/competitive/radioactivity; filed as Kd, often an IC50 or EC50 that approximates it; bounds were set here for any values at or beyond the usual limits of such assays
condition_label: source organism: Vaccinia virus WR
Binarize Kd at 10 nM; below is Condition met, at or above is Condition not met.

>  <sequence_code>
KSHAAYIDY

>  <discrete_label>
Condition not met

$$$$
>  <sequence_code>
STFNRFTIV

>  <discrete_label>
Condition not met

$$$$
>  <sequence_code>
IASTLIVTI

>  <discrete_label>
Condition not met

$$$$
>  <sequence_code>
NIMPLFPTF

>  <discrete_label>
Condition not met

$$$$
>  <sequence_code>
ALLELFNAF

>  <discrete_label>
Condition not met

$$$$
>  <sequence_code>
ASKVFFGPI

>  <discrete_label>
Condition not met

$$$$
>  <sequence_code>
YIRFRKNHI

>  <discrete_label>
Condition met

$$$$
>  <sequence_code>
MCIKYTACM

>  <discrete_label>
Condition met

$$$$
>  <sequence_code>
SLRYSSKVF

>  <discrete_label>
Condition not met

$$$$
>  <sequence_code>
SNKRHRPIG

>  <discrete_label>
Condition not met

$$$$
>  <sequence_code>
RILFRKPSL

>  <discrete_label>
Condition not met

$$$$
>  <sequence_code>
SVYKHRLIV

>  <discrete_label>
Condition not met

$$$$
>  <sequence_code>
SQVKCCHYF

>  <discrete_label>
Condition not met

$$$$
>  <sequence_code>
ATIQRFSSL

>  <discrete_label>
Condition met

$$$$
>  <sequence_code>
CIVNKFMSF

>  <discrete_label>
Condition not met

$$$$
>  <sequence_code>
EPIKHKYPL

>  <discrete_label>
Condition met

$$$$
>  <sequence_code>
AINNRICVM

>  <discrete_label>
Condition not met

$$$$
>  <sequence_code>
YIKFIFLQM

>  <discrete_label>
Condition met

$$$$
>  <sequence_code>
SLNLRIKIL

>  <discrete_label>
Condition not met

$$$$
